Entry source: ChEMBL document CHEMBL4342476

target: Receptor-interacting serine/threonine-protein kinase 2 (Homo sapiens, UniProt O43353); test: Displacement of fluorescein labeled ATP probe from His/GST-tagged RIPK2 (unknown origin) incubated for 60 mins by HTRF assay
Sequence (O43353 whole entry): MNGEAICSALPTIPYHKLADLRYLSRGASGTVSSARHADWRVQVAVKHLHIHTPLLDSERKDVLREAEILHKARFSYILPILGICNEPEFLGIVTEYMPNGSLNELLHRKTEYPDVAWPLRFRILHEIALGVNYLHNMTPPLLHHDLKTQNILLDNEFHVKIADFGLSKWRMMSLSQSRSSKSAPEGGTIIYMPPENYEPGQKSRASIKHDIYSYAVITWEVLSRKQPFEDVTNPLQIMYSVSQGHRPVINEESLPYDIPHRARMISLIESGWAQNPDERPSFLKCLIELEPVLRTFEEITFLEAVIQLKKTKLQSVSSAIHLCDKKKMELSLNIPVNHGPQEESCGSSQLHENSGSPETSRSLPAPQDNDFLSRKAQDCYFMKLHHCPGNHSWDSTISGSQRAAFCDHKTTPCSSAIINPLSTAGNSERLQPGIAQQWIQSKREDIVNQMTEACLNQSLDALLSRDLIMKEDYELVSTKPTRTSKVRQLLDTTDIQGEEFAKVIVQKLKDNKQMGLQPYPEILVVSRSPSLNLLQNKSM
Test readout: IC50 (µM)

Known IC50 results, listed for orientation:
Cc1cc(NC(=O)c2cccn(-c3ccc(F)cc3)c2=O)cc(C)c1Oc1ccncc1	13
Cc1cc(NC(=O)c2cccn(-c3ccc(F)cc3)c2=O)cc(C)c1Oc1ccnc(NC(=O)C2CC2)c1	3.1

[I] CC#Cc1c(Oc2ccc(NC(=O)c3cccn(-c4ccc(F)cc4)c3=O)cc2F)ccnc1N
[II] O=C(Nc1ccc(Oc2ccnc(NC(=O)C3CC3)c2)c(F)c1)c1cccn(-c2ccc(F)cc2)c1=O
[III] Cc1cc(NC(=O)c2cccn(-c3ccc(F)cc3)c2=O)ccc1Oc1ccnc(NC(=O)C2CC2)c1
Ask | Arrange items by their IC50 values in increasing order. Answer with the labels in sequence, matching the requested order.
Reply | III, II, I
